tested_target: Vasopressin V1a receptor (Homo sapiens, UniProt P37288)
Sequence (P37288 whole entry): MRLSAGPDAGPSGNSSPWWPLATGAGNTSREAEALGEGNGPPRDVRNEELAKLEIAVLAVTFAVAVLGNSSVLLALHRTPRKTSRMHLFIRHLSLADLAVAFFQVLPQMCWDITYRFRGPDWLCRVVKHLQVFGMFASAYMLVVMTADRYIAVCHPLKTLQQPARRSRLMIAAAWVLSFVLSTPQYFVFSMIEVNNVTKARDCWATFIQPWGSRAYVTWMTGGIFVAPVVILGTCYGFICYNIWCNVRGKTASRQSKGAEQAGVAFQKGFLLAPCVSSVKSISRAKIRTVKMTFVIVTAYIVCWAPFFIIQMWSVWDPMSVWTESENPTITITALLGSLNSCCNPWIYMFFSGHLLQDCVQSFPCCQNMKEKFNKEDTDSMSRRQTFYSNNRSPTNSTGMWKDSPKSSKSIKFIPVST
method_summary: Ability to displace [3H]arginine vasopressin in cloned human V1a receptor
pIC50: −log10 of the molar value.
measured_metric: pIC50

[
  {
    "compound": "O=C(O)CC[C@H]1CCN(C(=O)c2ccc(NC(=O)c3ccccc3-c3ccccc3)cc2)c2ccccc2S1",
    "pIC50": 6.85
  },
  {
    "compound": "O=C(O)C[C@H]1CCN(C(=O)c2ccc(NC(=O)c3ccccc3-c3ccccc3)cc2)c2ccccc2S1",
    "pIC50": 6.36
  },
  {
    "compound": "O=C(O)C[C@@H]1CCN(C(=O)c2ccc(NC(=O)c3ccccc3-c3ccccc3)cc2)c2ccccc2S1",
    "pIC50": 5.94
  }
]

P: CN(C)CC1CCN(C(=O)c2ccc(NC(=O)c3ccccc3-c3ccccc3)cc2)c2ccccc2S1 (stereo not given)
Q: O=C(Nc1ccc(C(=O)N2CCC(CC(F)F)Sc3ccccc32)cc1)c1ccccc1-c1ccccc1 (stereo not given)
R: O=C(O)CC[C@@H]1CCN(C(=O)c2ccc(NC(=O)c3ccccc3-c3ccccc3)cc2)c2ccccc2S1
S: O=C(Nc1ccc(C(=O)N2CCC(CCO)Sc3ccccc32)cc1)c1ccccc1-c1ccccc1 (stereo not given)
T: O=C(O)CC1CCN(C(=O)c2ccc(NC(=O)c3ccccc3-c3ccccc3)cc2)c2ccccc2S1 (stereo not given)
Task item: # ascending order, key=pIC50 Form field (ranking): labels in requested order.
Reply: P, T, R, Q, S
(P: 5.92, T: 6.14, R: 6.50, Q: 6.80, S: 7.01)

A: O=C(Nc1ccc(C(=O)N2CCC(CCF)Sc3ccccc32)cc1)c1ccccc1-c1ccccc1 (stereo not given)
B: O=C(Nc1ccc(C(=O)N2CCC(CCS(=O)(=O)O)Sc3ccccc32)cc1)c1ccccc1-c1ccccc1 (stereo not given)
Task item: Pick one: A or B . Which one has the lower reported pIC50? Pick one; state its label.
Reply: B
(B: 5.94, A: 6.74)

###

tested_target: Vasopressin V2 receptor (Homo sapiens)
Sequence (P30518 whole entry): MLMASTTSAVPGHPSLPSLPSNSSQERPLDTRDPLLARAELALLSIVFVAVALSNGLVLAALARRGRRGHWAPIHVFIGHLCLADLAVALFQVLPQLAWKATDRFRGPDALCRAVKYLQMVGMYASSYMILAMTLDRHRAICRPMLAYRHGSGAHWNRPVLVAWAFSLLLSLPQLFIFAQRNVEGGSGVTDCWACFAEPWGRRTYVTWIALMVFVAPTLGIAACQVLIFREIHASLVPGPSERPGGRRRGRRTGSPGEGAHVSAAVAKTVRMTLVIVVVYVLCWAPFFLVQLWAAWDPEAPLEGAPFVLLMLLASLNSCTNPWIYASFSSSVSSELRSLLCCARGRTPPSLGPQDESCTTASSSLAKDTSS
method_summary: Inhibition of vasopressin induced cAMP accumulation in human V2 receptor expressing cells
Type: functional
pIC50: −log10 of the molar value.
measured_metric: pIC50

[
  {
    "compound": "O=C(O)CC1CCN(C(=O)c2ccc(NC(=O)c3ccccc3-c3ccccc3)cc2)c2ccccc2S1 (stereo unspecified)",
    "pIC50": 7.40
  },
  {
    "compound": "O=C(O)CC[C@H]1CCN(C(=O)c2ccc(NC(=O)c3ccccc3-c3ccccc3)cc2)c2ccccc2S1",
    "pIC50": 7.52
  },
  {
    "compound": "O=C(O)CC[C@@H]1CCN(C(=O)c2ccc(NC(=O)c3ccccc3-c3ccccc3)cc2)c2ccccc2S1",
    "pIC50": 7.40
  },
  {
    "compound": "O=C(O)C[C@@H]1CCN(C(=O)c2ccc(NC(=O)c3ccccc3-c3ccccc3)cc2)c2ccccc2S1",
    "pIC50": 7.52
  }
]

a: O=C(O)C[C@H]1CCN(C(=O)c2ccc(NC(=O)c3ccccc3-c3ccccc3)cc2)c2ccccc2S1
b: O=C(Nc1ccc(C(=O)N2CCC(CCO)Sc3ccccc32)cc1)c1ccccc1-c1ccccc1 (stereo unspecified)
Task item: Sorting ascending by pIC50, which comes first: a or b ? In your reply, give the label of the chosen option.
Reply: b
